Reference for the values: ChEMBL document CHEMBL3399947

Give measured IC50 for each item. Keep answers brief.
biological target: GABA transporter 4 (Mus musculus); test: Inhibition of mouse mGAT4 expressed in HEK293 cells assessed as inhibition of [3H]GABA uptake after 3 mins incubation by TopCount microplate scintillation counting analysis; type: cell-based; settings: read-out: IC50
Give bare numbers, in µM.

Before answering, review these 3 worked examples.
CN(CCOC(c1ccc(C(F)(F)F)cc1)c1ccc(C(F)(F)F)cc1)[C@@H]1CCCC[C@@H]1C(=O)O: 539
CN(CCON=C(c1ccccc1)c1ccccc1)CCC(=O)O: 768
CN(CCC=C1c2ccccc2CCc2ccccc21)[C@H]1CCCC[C@H]1CO: 126

Required: IC50, one value per compound below.
1. CN(CCC=C1c2ccccc2CCc2ccccc21)[C@@H]1CCCC[C@H]1C(=O)O (racemic)
2. CN(CCON=C(c1ccccc1)c1ccccc1)[C@@H]1CCCC[C@@H]1CO

result:
[844, 341]

Required: IC50, one value per compound below.
1. CN(CCOC(c1ccc(C(F)(F)F)cc1)c1ccc(C(F)(F)F)cc1)[C@H]1CCCC[C@H]1C(=O)O
2. CN(CCOC(c1ccc(C(F)(F)F)cc1)c1ccc(C(F)(F)F)cc1)[C@@H]1CCCC[C@H]1C(=O)O
3. CCOC(=O)[C@@H]1CCCC[C@@H]1N(C)CCC=C(c1sccc1C)c1sccc1C

result:
303
299
835

Required: IC50, one value per compound below.
1. CN(CCC=C1c2ccccc2CCc2ccccc21)[C@H]1CCCC[C@@H]1C(=O)O
2. CN(CCC=C1c2ccccc2CCc2ccccc21)[C@@H]1CCCC[C@@H]1CO

result:
715
171

Required: IC50, one value per compound below.
1. Cc1ccsc1C(=CCCN(C)CCC(=O)O)c1sccc1C
2. Cc1ccsc1C(=CCCN(C)C1CCCC=C1C(=O)O)c1sccc1C (stereo in doubt; (E1)-6a)
3. O=C(O)C1CN(CCOC(c2ccc(C(F)(F)F)cc2)c2ccc(C(F)(F)F)cc2)CCN1 (racemic)

result:
1. 1280
2. 468
3. 1760

Required: IC50, one value per compound below.
1. CN(CCC=C1c2ccccc2CCc2ccccc21)[C@@H]1CCCC[C@@H]1C(=O)O
2. O=C(O)CCNCCON=C(c1ccccc1)c1ccccc1

result:
1. 1450
2. 310

###

Give measured IC50 for each item. Keep answers brief.
Biological target: GABA transporter 4 (Mus musculus, UniProt P31650)
Sequence (P31650 whole entry): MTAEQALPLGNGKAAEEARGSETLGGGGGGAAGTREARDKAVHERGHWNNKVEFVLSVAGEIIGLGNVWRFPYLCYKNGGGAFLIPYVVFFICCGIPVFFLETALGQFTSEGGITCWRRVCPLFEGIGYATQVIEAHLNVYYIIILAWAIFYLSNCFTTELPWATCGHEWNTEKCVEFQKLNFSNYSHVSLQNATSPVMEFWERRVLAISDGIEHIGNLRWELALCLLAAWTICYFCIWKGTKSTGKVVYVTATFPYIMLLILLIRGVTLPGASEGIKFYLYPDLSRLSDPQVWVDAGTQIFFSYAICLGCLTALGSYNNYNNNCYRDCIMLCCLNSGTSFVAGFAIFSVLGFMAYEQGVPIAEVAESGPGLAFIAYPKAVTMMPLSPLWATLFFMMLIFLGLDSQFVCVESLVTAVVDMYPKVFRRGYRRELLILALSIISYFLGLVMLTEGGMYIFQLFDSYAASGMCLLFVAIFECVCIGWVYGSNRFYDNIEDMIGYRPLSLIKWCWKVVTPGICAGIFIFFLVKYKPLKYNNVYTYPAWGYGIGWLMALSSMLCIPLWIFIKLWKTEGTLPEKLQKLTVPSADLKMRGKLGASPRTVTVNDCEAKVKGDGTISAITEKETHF
Test: Inhibition of mouse mGAT4 expressed in HEK293 cells assessed as inhibition of [3H]GABA uptake after 3 mins incubation by TopCount microplate scintillation counting analysis
Format: cell-based
Conditions: read-out: IC50
One number for each entry, in µM.

Before answering, review these 3 worked examples.
CCOC(=O)[C@@H]1CCCC[C@@H]1N(C)CCOC(c1ccc(C(F)(F)F)cc1)c1ccc(C(F)(F)F)cc1: 1470
CN(CCC=C1c2ccccc2CCc2ccccc21)[C@H]1CCCC[C@H]1C(=O)O: 649
Cc1ccsc1C(=CCCN(C)[C@@H]1CCCC[C@@H]1C(=O)O)c1sccc1C: 380

Note: attention shifts to another entry.
query: State its IC50 on GABA transporter 4 (Mus musculus, UniProt P31650): CCCCN1CCN(CCC=C(c2sccc2C)c2sccc2C)CC(C(=O)O)C1 (stereo not given)
result: 681

###

biological target: GABA transporter 4 (Mus musculus, UniProt P31650); experiment: Inhibition of mouse mGAT4 expressed in HEK293 cells assessed as inhibition of [3H]GABA uptake after 3 mins incubation by TopCount microplate scintillation counting analysis; format: cell-based; settings: read-out: IC50
Give measured IC50 for each item. Keep answers brief.
One number for each entry, in µM.

Before answering, review these 2 worked examples.
Cc1ccsc1C(=CCCN(C)[C@H]1CCCC[C@H]1C(=O)O)c1sccc1C: 289
Cc1ccsc1C(=CCCN1CCNCC1C(=O)O)c1sccc1C (racemic): 883

Required: IC50, one value per compound below.
1. CN(CCC=C1c2ccccc2CCc2ccccc21)C1CCCC=C1C(=O)O (stereo not given)
2. CN(CCC=C1c2ccccc2CCc2ccccc21)[C@@H]1CCCC[C@H]1C(=O)O

result:
821
883

###

molecular target: GABA transporter 4 (Mus musculus); experiment: Inhibition of mouse mGAT4 expressed in HEK293 cells assessed as inhibition of [3H]GABA uptake after 3 mins incubation by TopCount microplate scintillation counting analysis; format: cell-based; details: read-out: IC50
measured_property: IC50 (µM)
Answers are plain numbers, in µM.

Cc1ccsc1C(=CCCNCCC(=O)O)c1sccc1C: 1730
CN(CCC=C1c2ccccc2CCc2ccccc21)CCC(=O)O: 1700
Cc1ccsc1C(=CCCN(C)C1CCCC=C1C(=O)O)c1sccc1C (stereo in doubt; (E2)-6a): 413
Cc1ccsc1C(=CCCN1CCNCC(C(=O)O)C1)c1sccc1C (stereo unspecified): 1740

Note: attention shifts to another entry.
query: Please report the recorded IC50 for CN(CCON=C(c1ccccc1)c1ccccc1)[C@H]1CCCC[C@H]1CO .
result: 136

###

Target: GABA transporter 4 (Mus musculus)
Sequence (P31650 whole entry): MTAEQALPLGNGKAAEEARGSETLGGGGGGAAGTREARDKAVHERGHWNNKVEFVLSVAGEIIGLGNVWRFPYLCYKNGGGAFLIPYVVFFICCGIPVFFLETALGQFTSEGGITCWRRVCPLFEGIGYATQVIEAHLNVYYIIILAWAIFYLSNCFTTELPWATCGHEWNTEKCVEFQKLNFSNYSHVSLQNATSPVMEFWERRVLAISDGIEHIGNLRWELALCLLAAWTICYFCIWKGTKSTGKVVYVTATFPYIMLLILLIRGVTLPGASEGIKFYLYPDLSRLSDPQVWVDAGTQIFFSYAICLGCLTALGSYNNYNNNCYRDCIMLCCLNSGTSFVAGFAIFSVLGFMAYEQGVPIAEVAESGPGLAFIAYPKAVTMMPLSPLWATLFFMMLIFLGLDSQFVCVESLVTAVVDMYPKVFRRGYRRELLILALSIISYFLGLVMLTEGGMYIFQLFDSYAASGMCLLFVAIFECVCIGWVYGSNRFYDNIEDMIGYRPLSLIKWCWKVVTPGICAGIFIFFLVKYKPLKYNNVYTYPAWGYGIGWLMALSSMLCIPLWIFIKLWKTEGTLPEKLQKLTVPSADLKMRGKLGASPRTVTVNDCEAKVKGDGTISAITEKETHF
Assay: Inhibition of mouse mGAT4 expressed in HEK293 cells assessed as inhibition of [3H]GABA uptake after 3 mins incubation by TopCount microplate scintillation counting analysis
Assay type: cell-based
Settings: read-out: IC50
measured_property: pIC50
Numbers only, as −log10 of the molar value.

Before answering, review these 3 worked examples.
Cc1ccsc1C(=CCCN(C)[C@@H]1CCCC[C@H]1C(=O)O)c1sccc1C: 3.26
CNCCC=C1c2ccccc2CCc2ccccc21: 3.60
C=CCN1CCN(CCC=C(c2sccc2C)c2sccc2C)CC(C(=O)O)C1 (stereo unspecified): 3.25

Required: pIC50, one value per compound below.
1. CCOC(=O)[C@H]1CCCC[C@H]1N(C)CCC=C(c1sccc1C)c1sccc1C
2. CNCCON=C(c1ccccc1)c1ccccc1

result:
2.91
3.08

Required: pIC50, one value per compound below.
1. CCOC(=O)[C@@H]1CCCC[C@@H]1N(C)CCC=C1c2ccccc2CCc2ccccc21
2. CNCCC=C(c1sccc1C)c1sccc1C
3. Cc1ccsc1C(=CCCN(C)[C@@H]1CCCC[C@@H]1CO)c1sccc1C
4. Cc1ccsc1C(=CCCN(C)[C@H]1CCCC[C@@H]1C(=O)O)c1sccc1C
5. CN(CCOC(c1ccc(C(F)(F)F)cc1)c1ccc(C(F)(F)F)cc1)[C@H]1CCCC[C@H]1CO
6. CNCCOC(c1ccc(C(F)(F)F)cc1)c1ccc(C(F)(F)F)cc1

result:
[2.78, 3.60, 3.75, 3.58, 3.74, 3.84]

Required: pIC50, one value per compound below.
1. CCOC(=O)[C@H]1CCCC[C@H]1N(C)CCOC(c1ccc(C(F)(F)F)cc1)c1ccc(C(F)(F)F)cc1
2. Cc1ccsc1C(=CCCN(C)[C@H]1CCCC[C@H]1CO)c1sccc1C
3. CN(CCOC(c1ccc(C(F)(F)F)cc1)c1ccc(C(F)(F)F)cc1)[C@@H]1CCCC[C@H]1C(=O)O (racemic)

result:
2.92
3.84
3.41
